B1: SETD8 (parent)
chain: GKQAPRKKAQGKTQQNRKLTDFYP

Variants of: B1
assaySummary: protein stability index of a GFP-peptide fusion (GPS, HEK-293T) (PSI 1-6); higher = more stable;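 note: lentivirally expressed fusions sorted by FACS into six bins by GFP to DsRed ratio, PSI derived from sequencing read proportions per bin multiplied by bin number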
experimentalContext: c terminus: a fixed tail appended
experimentalEndpoint: protein stability index
Please reply with the number alone, leaving off any unit.

For GKQAPRKKAQGKTVQNRKLTDFYP [Q14V] , what is its reported protein stability index?
3.07

What about GKQAPRKHAQGKTQQNRKLTDFYP [K8H] ?
2.99

What about GKQAPRKKAQGKTQQNRTLTDFYP [K18T] ?
3.05

What about GKQAPRYKAQGKTQQNRKLTDFYP [K7Y] ?
3.06

What about GKQAPRKKAQGKTQQNRKLTTFYP [D21T] ?
3.9

What about GKQAPRKKADGKTQQNRKLTDFYP [Q10D] ?
3.17

What about GKQAPRKKAQGKTQQTRKLTDFYP [N16T] ?
2.53

What about GKQAPRKKAQGKTQQNRKLTDAYP [F22A] ?
4.61

What about GNQAPRKKAQGKTQQNRKLTDFYP [K2N] ?
3.11

What about GKYAPRKKAQGKTQQNRKLTDFYP [Q3Y] ?
3.58

What about GKQAPRKKAQGKTQQNRKLTDFYN [P24N] ?
2.18

What about GKQAPRKKAQGKTQQNRKLTRFYP [D21R] ?
3.46

What about GKQAPRKKAQGKTEQNRKLTDFYP [Q14E] ?
3.41

What about GTQAPRKKAQGKTQQNRKLTDFYP [K2T] ?
2.46

What about GKQAWRKKAQGKTQQNRKLTDFYP [P5W] ?
2.57

What about GKQAPRKKASGKTQQNRKLTDFYP [Q10S] ?
4.86

What about GKQAPRKKAQGKTQQNDKLTDFYP [R17D] ?
3.8

What about GKQAPRKKAQGPTQQNRKLTDFYP [K12P] ?
2.51

What about GKQAPRKKYQGKTQQNRKLTDFYP [A9Y] ?
3.35

What about GKQAPRKKAQGKTQHNRKLTDFYP [Q15H] ?
3.76

What about GKQAPRKKAQGKSQQNRKLTDFYP [T13S] ?
2.04

What about GKQAPRKKAQGKTQQNRKLTLFYP [D21L] ?
3.53

What about GKQAPRKKAQGKTQQNRKLTEFYP [D21E] ?
1.79

What about GKQAPRKKAQGKTIQNRKLTDFYP [Q14I] ?
3.11

What about GKRAPRKKAQGKTQQNRKLTDFYP [Q3R] ?
4.32

What about GKQAPRKKNQGKTQQNRKLTDFYP [A9N] ?
4.09

What about GKQAPRKKAQGKTQQNRDLTDFYP [K18D] ?
4.87

What about GKQAPRKKAQGKTQQFRKLTDFYP [N16F] ?
2.68

What about GKQAPWKKAQGKTQQNRKLTDFYP [R6W] ?
2.48

What about GKQAPRKKAQGKTQQNRKLTDFHP [Y23H] ?
4.93

What about GKQAPRKKAQGKTQDNRKLTDFYP [Q15D] ?
3.71

What about GKQAPRKKAQGKTQQNRKLTDFGP [Y23G] ?
4.34

What about GKQAPRKKAQGKGQQNRKLTDFYP [T13G] ?
3.35

What about GKPAPRKKAQGKTQQNRKLTDFYP [Q3P] ?
2.01

What about GKQAPRKKAQGKNQQNRKLTDFYP [T13N] ?
2.87

What about GKQAPRKKAQGKTQQVRKLTDFYP [N16V] ?
3.57

What about GKQAPRKKAQGKQQQNRKLTDFYP [T13Q] ?
3.93

What about GKQAPRKKAQGKTQQNRKLHDFYP [T20H] ?
3.94

What about GKQAPRKKAQGKTQQNRKLTDRYP [F22R] ?
3.6

What about GKQAPRKKAQGKTQQNRKLPDFYP [T20P] ?
4.41

What about GKQAPRKKAQGKTQQNCKLTDFYP [R17C] ?
2.96

What about GKQATRKKAQGKTQQNRKLTDFYP [P5T] ?
1.74

What about GKQAPRKKAQGKTQQSRKLTDFYP [N16S] ?
4.04

What about GKQAPRKKAQGKTQQNRKRTDFYP [L19R] ?
4.33

What about GKQAPRKKAQGKRQQNRKLTDFYP [T13R] ?
3.82

What about GKQAPRDKAQGKTQQNRKLTDFYP [K7D] ?
3.07

What about GKQAPRKKAVGKTQQNRKLTDFYP [Q10V] ?
3.01

What about GKQAIRKKAQGKTQQNRKLTDFYP [P5I] ?
3.36

What about GKQAPRSKAQGKTQQNRKLTDFYP [K7S] ?
2.48

What about GKQAPFKKAQGKTQQNRKLTDFYP [R6F] ?
2.43

What about GKQAPRKKAQGKTQQNRHLTDFYP [K18H] ?
2.69

What about GKQAPRKKAQGKTQQNRKLTDTYP [F22T] ?
4.57

What about GKQAPRKKAQGKTQQNRKLTDDYP [F22D] ?
3.15

What about GKQAPRKKAQGKTQQNRKLDDFYP [T20D] ?
4.5

What about GKQAPRKKAQGKTQQNRKLTDFPP [Y23P] ?
4.44

What about GKQVPRKKAQGKTQQNRKLTDFYP [A4V] ?
1.83

What about GKQAPRKKAQGKTYQNRKLTDFYP [Q14Y] ?
3.4

What about GKQAPRKKAQGNTQQNRKLTDFYP [K12N] ?
3.07

What about GKQAPRKKAQGKTQQNRKHTDFYP [L19H] ?
3.77

What about GKQAPRKKAQGKTQQNRKLTIFYP [D21I] ?
3.13

What about GKQAPRKKAQGKTQQNRKLKDFYP [T20K] ?
3.54

What about GAQAPRKKAQGKTQQNRKLTDFYP [K2A] ?
3.09

What about GKQAHRKKAQGKTQQNRKLTDFYP [P5H] ?
2.85

What about GKQAPRKKAQGKTQQNFKLTDFYP [R17F] ?
2.88

What about GKQAPRKKAQGATQQNRKLTDFYP [K12A] ?
2.76

What about GKQAPGKKAQGKTQQNRKLTDFYP [R6G] ?
3.55

What about GKQEPRKKAQGKTQQNRKLTDFYP [A4E] ?
3.04

What about GKQAPRKKAQGKAQQNRKLTDFYP [T13A] ?
3.48

What about GKQAPRKKAQGKTQQNRKLTFFYP [D21F] ?
2.59

What about GKQAPRKKAQGKEQQNRKLTDFYP [T13E] ?
3.83

What about GKQAPRKKAQGKTQQNPKLTDFYP [R17P] ?
3.06

What about GKQAPRKKAQGKTQQNRKLTDFEP [Y23E] ?
4.51

What about GKQAMRKKAQGKTQQNRKLTDFYP [P5M] ?
3.08

What about GKQAPRKKAQGKTQSNRKLTDFYP [Q15S] ?
3.26

What about GKQAPVKKAQGKTQQNRKLTDFYP [R6V] ?
2.68

What about GKQAPRKKAQGKTTQNRKLTDFYP [Q14T] ?
3.4
